# assay_name: chemical genetic growth profiling, strain panel (AID 1159580);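 note: tested at 20 µM; growth read once vehicle control cultures reached saturation at 30 °C; lower values mean less growth of the strain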
# run_conditions: S. cerevisiae deletion strains, growth OD, locus YAL026C, strain drs2
Screen size: about 5,500 compounds; about 2,000 (36%) were called active. Not shown: some 18% with an inconclusive outcome. Cut-off read from the data, not from the text of the source: active = normalized growth mostly below about 0.91 (no sharp cut-off); inconclusive = no clear call, values can overlap the other calls; inactive = mostly above about 0.92. This is one part of the list.
Outcomes: True (active), False (inactive)

| compound | answer_label |
| --- | --- |
| COc1cc([C@@H]2c3cc4c(cc3[C@H](OC(C)=O)[C@H]3COC(=O)[C@@H]23)OCO4)cc(OC)c1OC | False |
| O=c1cc(-c2ccc(O)cc2)oc2cc(O)cc(O)c12 | False |
| O=c1cc(-c2cc(O)c(O)c(O)c2)oc2cc(O)cc(O)c12 | False |
| CN(CCC(N)CC(=O)N[C@H]1C=CC(n2ccc(N)nc2=O)O[C@@H]1C(=O)O)C(=N)N (stereo not given in full) | False |
| N[C@@H]1[C@@H](O)[C@H](O)[C@@H](CO)O[C@H]1O | False |
| C=Cc1c(C)c2[n-]c1=Cc1[n-]c(c(CC)c1C)C=c1[n-]c3c(c1C)C(=O)C(C(=O)[O-])C=3c1[n-]c(c(C)c1CCC(=O)[O-])C=2.[Cu] (stereo not given) | False |
| Nc1cc(-c2ccncc2)c[nH]c1=O | True |
| O=c1cc(-c2ccccc2)oc2c(O)c(O)ccc12 | False |
| C[C@@H]1O[C@@H](O[C@H]2C[C@@H](O)[C@]3(CO)C4C(CC[C@]3(O)C2)[C@@]2(O)CC[C@H](C3=CC(=O)OC3)[C@@]2(C)C[C@H]4O)[C@H](O)[C@H](O)[C@H]1O (stereo not given in full) | False |
| Cc1cc(=O)oc2c(O)c(O)ccc12 | False |
